system: E. Coli; assay: in vitro MIC in BHI broth, E. Coli; format: cell-based; conditions: Escherichia coli, E. Coli 129
# reported MIC; entries follow
Reply with just the number (in µg/mL).

Smiles Entry	Assayed Target	Numeric Result
CC[C@H]1OC(=O)[C@H](C)[C@@H](O[C@H]2C[C@@](C)(O)[C@@H](O)[C@H](C)O2)[C@H](C)[C@@H](O[C@@H]2O[C@H](C)C[C@H](N(C)C)[C@H]2O)[C@](C)(O)C[C@@H](C)CN(C)[C@H](C)[C@@H](O)[C@H]1C	E. Coli	12.5

Now, please, on to the next compound.
**Q:** State its MIC on E. Coli: `CC[C@H]1OC(=O)[C@H](C)[C@@H](O[C@H]2C[C@@](C)(OC)[C@@H](O)[C@H](C)O2)[C@H](C)[C@@H](O[C@@H]2O[C@H](C)C[C@H](N(C)C)[C@H]2O)[C@](C)(O)C[C@@H](C)CN(C)[C@H](C)[C@@H](O)[C@]1(C)O`
**A:** 6.25
